This collection of values is drawn from ChEMBL document CHEMBL4265908.

Target: Nuclear factor erythroid 2-related factor 2 (Homo sapiens)
Assay: Activation of Nrf2 in human HepG2-ARE-C8 cells assessed as induction of ARE-mediated luciferase activity at 40 uM after 24 hrs by luciferase reporter gene assay relative to control
Format: cell-based
Reported Activity values are given for each entry in this list.
Format: numeric value only, no unit, no commentary.

Fc1ccccc1-c1nc(-c2ccc3nc[nH]c3c2)no1: 15
Fc1ccc(-c2nc(-c3ccc4nc[nH]c4c3)no2)c(Cl)c1: 14.7
Fc1ccc(-c2nc(-c3ccc(Br)cc3)no2)cc1F: 12.2
Fc1cc(F)c(-c2nc(-c3ccc4nc[nH]c4c3)no2)cc1F: 4.36

## Task // lookup Activity | system=Nuclear factor erythroid 2-related factor 2 (Homo sapiens) | key= Fc1ccc(-c2nc(-c3ccc4nc[nH]c4c3)no2)cc1Br
## Result 3.92

## Task Record lookup: for Nuclear factor erythroid 2-related factor 2 (Homo sapiens), what Activity belongs to CC(C)(C)c1cc(O)ccc1O ?
## Result 2.14

## Task Please tell me: Activity of Brc1ccc(-c2nc(-c3ccc4nc[nH]c4c3)no2)cc1 , system Nuclear factor erythroid 2-related factor 2 (Homo sapiens)?
## Result 3.44

## Task Can you look up Activity on Nuclear factor erythroid 2-related factor 2 (Homo sapiens) for Fc1ccc(-c2nc(-c3ccncc3)no2)cc1F ?
## Result 1.72

## Task // fetch Nuclear factor erythroid 2-related factor 2 (Homo sapiens) Activity for Fc1ccc(F)c(-c2nc(-c3ccc4nc[nH]c4c3)no2)c1
## Result 20.2

----------
Target: Nuclear factor erythroid 2-related factor 2 (Homo sapiens)
Assay: Activation of Nrf2 in human HepG2-ARE-C8 cells assessed as induction of ARE-mediated luciferase activity at 0.1 uM after 24 hrs by luciferase reporter gene assay relative to control
Assay type: cell-based
MEASUREMENT_TYPE: Activity
Answer as a number with no unit attached.

CC(C)(C)c1ccc(-c2noc(-c3ccc(F)c(F)c3)n2)cc1: 2.88

## Task Looking for the measured Activity of Fc1cccc(-c2noc(-c3ccc(F)c(F)c3)n2)c1 , can you help?
## Result 1.81

## Task Which Activity is listed for Fc1cccc(-c2nc(-c3ccc4nc[nH]c4c3)no2)c1F ?
## Result 2.22

----------
Target: Nuclear factor erythroid 2-related factor 2 (Homo sapiens)
Sequence (whole entry): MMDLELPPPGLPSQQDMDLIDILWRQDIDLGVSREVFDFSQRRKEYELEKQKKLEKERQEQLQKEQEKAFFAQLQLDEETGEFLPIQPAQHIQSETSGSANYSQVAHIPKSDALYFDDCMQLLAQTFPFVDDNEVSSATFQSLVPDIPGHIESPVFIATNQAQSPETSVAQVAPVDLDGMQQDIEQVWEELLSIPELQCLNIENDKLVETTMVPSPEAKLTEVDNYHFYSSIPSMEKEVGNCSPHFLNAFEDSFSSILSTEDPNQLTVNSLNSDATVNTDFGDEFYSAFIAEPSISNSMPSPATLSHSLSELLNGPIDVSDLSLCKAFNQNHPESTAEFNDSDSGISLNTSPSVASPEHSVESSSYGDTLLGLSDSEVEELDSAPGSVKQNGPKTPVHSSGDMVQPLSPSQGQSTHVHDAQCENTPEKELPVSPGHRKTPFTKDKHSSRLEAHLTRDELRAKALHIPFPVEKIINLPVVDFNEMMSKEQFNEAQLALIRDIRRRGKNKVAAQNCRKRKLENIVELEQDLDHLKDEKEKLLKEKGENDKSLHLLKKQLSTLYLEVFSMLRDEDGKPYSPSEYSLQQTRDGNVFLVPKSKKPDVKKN
Test: Activation of Nrf2 in human HepG2-ARE-C8 cells assessed as induction of ARE-mediated luciferase activity at 0.01 uM after 24 hrs by luciferase reporter gene assay relative to control
Format: cell-based
Consider the following compounds and their measured Activity readings.
Respond numerically, and do not add a unit to the figure.

Below: 5 compounds and their reported Activity.
Fc1ccc(-c2nc(-c3ccc4nc[nH]c4c3)no2)cc1Br: 1.68
Cc1ccc(-c2noc(-c3ccc(F)c(F)c3)n2)cc1: 0.67
Fc1cc(F)c(-c2nc(-c3ccc4nc[nH]c4c3)no2)cc1Cl: 1.94
Fc1ccc(-c2nc(-c3ccccc3F)no2)cc1F: 3.85
COc1cc(OC)cc(-c2noc(-c3ccc(F)c(F)c3)n2)c1: 1.87

## Task Activity lookup needed for Fc1ccc(-c2nc(-c3ccc4nc[nH]c4c3)no2)c(Cl)c1 , thanks.
## Result 0.68

## Task So what's the measured Activity for this one? Fc1ccc(-c2nc(-c3ncccn3)no2)cc1F
## Result 0.92

## Task Looking for the measured Activity of Fc1cccc(-c2noc(-c3ccc(F)c(F)c3)n2)c1 , can you help?
## Result 0.92

## Task Field request: Activity | item: Fc1ccc(-c2nc(-c3ccc4nc[nH]c4c3)no2)c(F)c1
## Result 1.62

## Task Field request: Activity | item: CC(C)(C)c1ccc(-c2noc(-c3ccc(F)c(F)c3)n2)cc1
## Result 1.35

## Task What does the data say about its Activity? Entry: Fc1ccc(-c2nc(-c3ccc4ccccc4c3)no2)cc1F
## Result 1.16

## Task Using the record for Fc1ccc(-c2nc(-c3ccncc3)no2)cc1F , report its Activity.
## Result 1.08

----------
Target: Nuclear factor erythroid 2-related factor 2 (Homo sapiens) (UniProt Q16236)
Test: Activation of Nrf2 in human HepG2-ARE-C8 cells assessed as induction of ARE-mediated luciferase activity at 20 uM after 24 hrs by luciferase reporter gene assay relative to control
Assay type: cell-based
So basically, the class depends on measured Activity, and the ranges are group A = under 4, group B = from 4 up to 9, group C = 9 and over

Take a look at these entries with their results.
Fc1cc(F)c(-c2nc(-c3ccc4nc[nH]c4c3)no2)cc1Cl: group A
Fc1ccccc1-c1nc(-c2ccc3nc[nH]c3c2)no1: group C
Clc1ccc(-c2nc(-c3ccc4nc[nH]c4c3)no2)cc1: group C
Fc1ccc(-c2nc(-c3ccc(Cl)cc3)no2)cc1F: group B
Fc1ccc(-c2nc(-c3ccc4nc[nH]c4c3)no2)cc1Cl: group B
Fc1ccc(-c2nc(-c3ccc4nc[nH]c4c3)no2)cc1Br: group A
Fc1ccc(-c2nc(-c3ccc(Br)cc3)no2)cc1F: group B
Brc1ccc(-c2nc(-c3ccc4nc[nH]c4c3)no2)cc1: group C

As a next step, examine the molecule that follows.
## Task Textbook exercise: identify the category of the molecule given here, Fc1cccc(-c2nc(-c3ccc4nc[nH]c4c3)no2)c1F , according to its measured value.
## Result group B

----------
Experiment: Lipophilicity, log D of the compound at pH 7.4 by potentiometric titration method
Type: physicochemical
Conditions: buffer
The molecules listed here are annotated with their logD.
// print number alone

Example entries and their recorded answers appear below.
Cc1cccc(-c2noc(-c3ccc(F)c(F)c3)n2)n1: 2.86
Fc1ccc(-c2nc(-c3ccc4nc[nH]c4c3)no2)cc1F: 3.3

Now examine the next entry.
## Task Tell me the measured logD of Fc1ccc(-c2nc(-c3ccc(Br)cc3)no2)cc1F , please.
## Result 3.91

----------
Target: Nuclear factor erythroid 2-related factor 2 (Homo sapiens) (UniProt Q16236)
Assay: Activation of Nrf2 in human HepG2-ARE-C8 cells assessed as induction of ARE-mediated luciferase activity at 1 uM after 24 hrs by luciferase reporter gene assay relative to control
Type: cell-based
Note that class boundaries on Activity are small value: < 2; mid value: ≥ 2 and < 4; large value: ≥ 4

CN(C)C=O: small value

## Task Using the reported Activity, which band applies to Fc1ccc(-c2nc(-c3ccccn3)no2)cc1F ?
## Result small value

## Task Classify this compound: Fc1cccc(-c2nc(-c3ccc4nc[nH]c4c3)no2)c1F
## Result mid value

## Task Into which bin does this compound go? Fc1ccc(-c2noc(-c3ccc(F)c(F)c3)n2)nc1
## Result mid value

----------
Target: Nuclear factor erythroid 2-related factor 2 (Homo sapiens)
Sequence (whole entry): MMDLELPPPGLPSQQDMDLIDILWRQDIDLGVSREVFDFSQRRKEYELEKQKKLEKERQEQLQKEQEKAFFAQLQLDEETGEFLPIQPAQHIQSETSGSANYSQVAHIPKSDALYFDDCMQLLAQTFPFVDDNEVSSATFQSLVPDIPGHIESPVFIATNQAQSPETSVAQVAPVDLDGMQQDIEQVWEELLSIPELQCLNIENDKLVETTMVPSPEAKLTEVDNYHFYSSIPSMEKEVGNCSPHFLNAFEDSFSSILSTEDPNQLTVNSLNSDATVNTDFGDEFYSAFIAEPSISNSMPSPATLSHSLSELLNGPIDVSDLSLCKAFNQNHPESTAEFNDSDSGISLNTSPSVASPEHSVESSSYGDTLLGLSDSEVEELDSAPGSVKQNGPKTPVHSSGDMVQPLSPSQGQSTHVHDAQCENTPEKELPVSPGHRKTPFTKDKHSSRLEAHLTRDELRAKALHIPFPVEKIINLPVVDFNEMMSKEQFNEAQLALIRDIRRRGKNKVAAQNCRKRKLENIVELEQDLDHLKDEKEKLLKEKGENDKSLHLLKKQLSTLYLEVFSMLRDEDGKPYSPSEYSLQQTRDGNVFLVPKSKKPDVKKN
Assay: Activation of Nrf2 in human HepG2-ARE-C8 cells assessed as induction of ARE-mediated luciferase activity at 80 uM after 24 hrs by luciferase reporter gene assay relative to control
Format: cell-based
Recorded Activity determines the label; the label ranges are I: < 5; II: ≥ 5 and < 10; III: ≥ 10

Fc1ccc(-c2nc(-c3ccccc3F)no2)cc1F: II

Attention now shifts to the item below.
## Task Using the reported Activity, which band applies to Fc1ccc(F)c(-c2nc(-c3ccc4nc[nH]c4c3)no2)c1 ?
## Result III
